- Tested on: Vero TMPRSS2 cells
- Test Description: Cytotoxicity at single concentration, CellTiter-Glo ATP quantitation
- Format: cell-based, African Green Monkey
- Assay Setup: 100 uM, 72 hours
Entries and their measured % Cell Viability Replicate 2 follow.
Value expressed in %; do not type the unit.

Molecule: CCCCCCC#Cc1cncc(-c2nnc(SCc3ccc(Cl)cc3)n2C)c1 [drawing 116]
% Cell Viability Replicate 2 / %: 1.76

Tell me the measured % Cell Viability Replicate 2 of CCCCCCC#Cc1cncc(-c2nnc(SCc3ccc(Cl)cc3)n2C)c1 [drawing 102] , please. 38.53

Tell me the measured % Cell Viability Replicate 2 of CCCCCCC#Cc1cncc(-c2nnc(SCc3ccc([N+](=O)[O-])cc3)n2C)c1 [drawing 106] , please. 29.56

---

Entries and their measured % Cell Viability Average follow.
- Test system: Vero TMPRSS2 cells
- Test Description: Cytotoxicity at single concentration, CellTiter-Glo ATP quantitation
- Format: cell-based, African Green Monkey
- Assay Setup: 100 uM, 72 hours
Value expressed in %; do not type the unit.

Compound: CCCCCCC#Cc1cncc(-c2nnc(SCc3ccc(Cl)cc3)n2C2CC2)c1 [drawing 107]
% Cell Viability Average (%): 33.69
--
Compound: C#Cc1cncc(-c2nnc(SCc3ccc(Cl)cc3)n2C)c1 [drawing 113]
% Cell Viability Average (%): 3.10
--
Compound: CCCCCCC#Cc1cncc(-c2nnc(SCc3ccc(Cl)cc3)n2C)c1 [drawing 102]
% Cell Viability Average (%): 42.78
--
Compound: CCCCCCC#Cc1cncc(-c2nnc(SCc3ccc(Cl)cc3)n2C)c1 [drawing 114]
% Cell Viability Average (%): 2.36
--
Compound: CCCCCCC#Cc1cncc(-c2nnc(SCc3ccc(Cl)cc3)n2C)c1 [drawing 117]
% Cell Viability Average (%): 1.56
--
Compound: CCCCCCC#Cc1cncc(-c2nnc(SCc3ccc(Cl)cc3)n2C)c1 [drawing 116]
% Cell Viability Average (%): 1.67

Continue with the next compound.
Tell me the measured % Cell Viability Average of CCCCCCC#Cc1cncc(-c2nnc(SCc3ccc(F)cc3)n2C)c1 [drawing 110] , please. 19.61

---

Entries and their measured % Cell Viability Replicate 2 follow.
- System: Vero TMPRSS2 cells
- Test Description: Cytotoxicity at single concentration, CellTiter-Glo ATP quantitation
- Type: cell-based, African Green Monkey
- Assay Setup: 100 uM, 72 hours
Value expressed in %; do not type the unit.

Some solved cases for reference:
Molecule: CCCCCCC#Cc1cncc(-c2nnc(SCc3ccc(Cl)c(Cl)c3)n2C)c1 [drawing 111]
Units Label: %
% Cell Viability Replicate 2: 17.98
--
Molecule: CCCCCCC#Cc1cncc(-c2nnc(SCCCn3ccc(=O)[nH]c3=O)n2C)c1
Units Label: %
% Cell Viability Replicate 2: 19.21

Continue with the next molecule.
Tell me the measured % Cell Viability Replicate 2 of CCCCCCC#Cc1cncc(-c2nnc(SCc3ccc(Cl)cc3)n2C)c1 [drawing 100] , please. 54.56

These measurements were taken from patent US20250136574A1.
